The reported measurements were obtained from patent US20230000936A1.

- test_system: EDG3 (Homo sapiens, UniProt Q99500)
- Sequence (Q99500 whole entry): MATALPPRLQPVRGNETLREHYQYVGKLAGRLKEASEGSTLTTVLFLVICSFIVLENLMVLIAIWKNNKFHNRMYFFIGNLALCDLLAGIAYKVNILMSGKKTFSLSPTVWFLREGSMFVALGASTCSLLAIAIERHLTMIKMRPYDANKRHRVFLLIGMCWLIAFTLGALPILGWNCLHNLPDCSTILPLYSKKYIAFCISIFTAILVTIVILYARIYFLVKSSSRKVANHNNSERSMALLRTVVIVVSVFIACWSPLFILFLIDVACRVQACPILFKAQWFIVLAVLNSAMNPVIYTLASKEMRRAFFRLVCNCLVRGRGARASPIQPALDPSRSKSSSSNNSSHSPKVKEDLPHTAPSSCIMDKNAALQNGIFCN
- experiment_notes: GPCR reactivity screen, PathHunter β-Arrestin, agonist assay EDG3
- Format: cell-based
- Set-up: concentration or dose not given beside the values
- recorded_conditions: agonist mode; control sphingosine-1-phosphate

{"compound": "CCCCc1cc(O)c(C/C=C(\\C)CCC=C(C)C)c(O)c1C(=O)O", "EDG3 (Agonist) percent activity [%]": 0}
{"compound": "C=C(C)[C@@H]1CCC(C)=C[C@H]1c1c(O)cc(CCCCC)c(C(=O)O)c1O", "EDG3 (Agonist) percent activity [%]": "−1"}
{"compound": "CCCCCc1cc(O)c2c(c1)OC(C)(CCC=C(C)C)C=C2 (stereo not shown)", "EDG3 (Agonist) percent activity [%]": "−1"}
{"compound": "C=C(C)[C@@H]1CCC(C)=C[C@H]1c1c(O)cc(CCC)c(C(=O)O)c1O", "EDG3 (Agonist) percent activity [%]": "−3"}
